# target-or-test-system: DPP-IV (Homo sapiens)
# Construct: an extract of human colon carcinoma cell line Caco-2 is used as the DPP IV source; endogenous in cells; solubilised in Nonidet-P40 buffer
# Sequence (P27487 whole entry): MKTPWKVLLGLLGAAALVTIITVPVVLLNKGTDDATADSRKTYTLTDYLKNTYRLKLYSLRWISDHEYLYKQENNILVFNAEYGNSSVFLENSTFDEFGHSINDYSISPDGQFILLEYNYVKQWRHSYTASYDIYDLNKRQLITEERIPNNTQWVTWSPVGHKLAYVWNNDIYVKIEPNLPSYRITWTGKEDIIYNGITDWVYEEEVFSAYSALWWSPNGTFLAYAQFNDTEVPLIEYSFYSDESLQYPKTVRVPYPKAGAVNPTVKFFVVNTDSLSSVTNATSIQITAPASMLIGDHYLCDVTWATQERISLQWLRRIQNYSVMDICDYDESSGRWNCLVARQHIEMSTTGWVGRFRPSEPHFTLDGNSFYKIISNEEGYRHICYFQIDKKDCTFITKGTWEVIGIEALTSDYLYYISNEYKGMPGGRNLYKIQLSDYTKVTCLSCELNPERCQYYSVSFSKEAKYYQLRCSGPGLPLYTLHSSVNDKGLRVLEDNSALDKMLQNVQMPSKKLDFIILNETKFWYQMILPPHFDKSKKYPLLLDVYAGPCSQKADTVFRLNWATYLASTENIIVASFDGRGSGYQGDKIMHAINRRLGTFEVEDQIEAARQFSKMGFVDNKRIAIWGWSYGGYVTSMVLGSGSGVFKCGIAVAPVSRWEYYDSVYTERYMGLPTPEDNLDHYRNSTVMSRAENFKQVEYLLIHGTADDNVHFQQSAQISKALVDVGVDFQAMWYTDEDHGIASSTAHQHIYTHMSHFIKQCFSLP
# test-name: DPP-IV assay with extract of Caco-2 cells as DPP IV source, AFC substrate, fluorescence
# conditions-used: extract of human colon carcinoma cell line Caco-2 as DPP IV source; substrate 100 μM; 60 minutes at ambient temperature; read-out: DPP IV inhibition IC50
measurement-name: IC50 (nM)

Known results for compounds:
{"compound": "C/C=C/Cn1c(N2CCC[C@@H](N)C2)nc2c1c(=O)n(CC1=NCC(=O)Nc3ccccc31)c(=O)n2C [Example 1(2)]", "IC50 [nM]": 6}
{"compound": "CC#CCn1c(N2CCC[C@@H](N)C2)nc2c1c(=O)n(Cc1nc3ccccc3c3ccccc13)c(=O)n2C1CC1 [1(20)]", "IC50 [nM]": 10}

A = CC#CCn1c(N2CCCC(N)C2)nc2c1c(=O)n(Cc1nc3ccccc3c3ccccc13)c(=O)n2C (stereo not shown) [1(3)]
B = CC#CCn1c(N2CCCC(N)C2)nc2c1c(=O)n(CC1=NC(C(F)(F)F)Cc3ccccc31)c(=O)n2C (stereo not shown) [1(7)]
Prompt line: Which has the smaller recorded IC50, A or B ? Please reply using the label of the selected record.
Response line: A
